biological target: HLA-A*0202 (human); test: competitive inhibition of 125I-labelled standard peptide binding to purified HLA; settings: remark: other sources report otherwise
MEASUREMENT TYPE: IC50 (nM)
I only need the number, in nM, no unit after it.

VVFLTLSVTWI (modifications not checked) [Peptide 1419.25, … (PSA.1)] = 159
TLSVTWIGV (modifications not checked) [Peptide 60.0217, … (PSA.5.V9)] = 4.9
FLTLSVTWV (modifications not checked) [Peptide 60.0216, … (PSA.3.V9)] = 8.4

Would you kindly look at the next entry?
Problem: Recorded IC50 for KVTKFMLCV (modifications not checked) [Peptide 60.0220, … (PSA.187.V9)] , please?
Solution: 518

Source of measurements: patent US20070020327A1
